Test system: 922993-354-T-J3-PDC complex spheroid viability;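 note: spheroids exposed to the agents for one week; 100% = DMSO vehicle control wells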
Assay Text: Anticancer human tumor 922993-354-T-J3-PDC patient-derived endometrial carcinoma cell line growth inhibition [POLQ]
Conditions: second compound 0.316 µM; first compound 0.1 µM; stronger effect = lower value
Would you mind telling me the reported viability, T/C of each entry?

| Molecule | viability, T/C |
| --- | --- |
| CC1COCCN1c1cc(C2(S(C)(=N)=O)CC2)nc(-c2ccnc3[nH]ccc23)n1 (centres undefined) + COC1C(OC(N)=O)C(O)C(Oc2ccc3c(O)c(NC(=O)c4ccc(O)c(CC=C(C)C)c4)c(=O)oc3c2C)OC1(C)C | 105% |
| CCCS(=O)(=O)Nc1ccc(F)c(C(=O)c2c[nH]c3ncc(-c4ccc(Cl)cc4)cc23)c1F + Nc1ccc(C#CCN(C(=O)Cc2ncc(C(F)(F)F)cc2C(F)(F)F)c2ccc(F)cc2)nn1 | 106% |
| O=c1[nH]cc(F)c(=O)[nH]1 + COC1C(OC(N)=O)C(O)C(Oc2ccc3c(O)c(NC(=O)c4ccc(O)c(CC=C(C)C)c4)c(=O)oc3c2C)OC1(C)C | 94.9% |
| CCc1cc2c(N3CCc4c(cc(Cn5ccnc5)cc4-c4cn(C)nc4C(F)(F)F)C3=O)cc(C)nc2c(OC)n1 + Nc1ccc(C#CCN(C(=O)Cc2ncc(C(F)(F)F)cc2C(F)(F)F)c2ccc(F)cc2)nn1 | 98.1% |
| CC(C)n1c(=O)n(C)c2cnc3cc(F)c(-c4ccc(OCCCN5CCCCC5)nc4)cc3c21 + COC1C(OC(N)=O)C(O)C(Oc2ccc3c(O)c(NC(=O)c4ccc(O)c(CC=C(C)C)c4)c(=O)oc3c2C)OC1(C)C | 104% |
| O=C(Nc1ccc(O)c(NS(=O)(=O)c2ccc(F)cc2)c1)c1ccc(-c2ccccc2)cc1 + COC1C(OC(N)=O)C(O)C(Oc2ccc3c(O)c(NC(=O)c4ccc(O)c(CC=C(C)C)c4)c(=O)oc3c2C)OC1(C)C | 100% |
| C#Cc1c(F)ccc2cc(O)cc(-c3ncc4c(N5CC6CCC(C5)N6)nc(OCC56CCCN5CC(F)C6)nc4c3F)c12 (centres undefined) + Cc1cccc(N(C)C(=O)C2C(O)CCN2c2nc(C)cc(C(F)(F)F)c2C#N)c1 | 108% |
| COc1cc2cc(C(=O)CCC(=O)O)sc2cc1OC + COC1C(OC(N)=O)C(O)C(Oc2ccc3c(O)c(NC(=O)c4ccc(O)c(CC=C(C)C)c4)c(=O)oc3c2C)OC1(C)C | 101% |
| CC[C@@]1(O)C(=O)OCc2c1cc1n(c2=O)Cc2cc3c(CN(C)C)c(O)ccc3nc2-1 + COC1C(OC(N)=O)C(O)C(Oc2ccc3c(O)c(NC(=O)c4ccc(O)c(CC=C(C)C)c4)c(=O)oc3c2C)OC1(C)C | 43.6% |
| C#Cc1c(F)ccc2cc(O)cc(-c3ncc4c(N5CC6CCC(C5)N6)nc(OCC56CCCN5CC(F)C6)nc4c3F)c12 (centres undefined) + COC1C(OC(N)=O)C(O)C(Oc2ccc3c(O)c(NC(=O)c4ccc(O)c(CC=C(C)C)c4)c(=O)oc3c2C)OC1(C)C | 98.4% |

Could you report viability, T/C for every entry in the following list?
1. C=CCn1c(=O)c2cnc(Nc3ccc(N4CCN(C)CC4)cc3)nc2n1-c1cccc(C(C)(C)O)n1 + Cc1cccc(N(C)C(=O)C2C(O)CCN2c2nc(C)cc(C(F)(F)F)c2C#N)c1
2. CCc1cc2c(N3CCc4c(cc(Cn5ccnc5)cc4-c4cn(C)nc4C(F)(F)F)C3=O)ccnc2c(OC)n1 + Cc1cccc(N(C)C(=O)C2C(O)CCN2c2nc(C)cc(C(F)(F)F)c2C#N)c1
3. C=CC(=O)N1CCN(c2nc(=O)n(-c3c(C)ccnc3C(C)C)c3nc(-c4c(O)cccc4F)c(F)cc23)C(C)C1 (centres undefined) + Nc1ccc(C#CCN(C(=O)Cc2ncc(C(F)(F)F)cc2C(F)(F)F)c2ccc(F)cc2)nn1
4. O=C(Nc1ccc(O)c(NS(=O)(=O)c2ccc(F)cc2)c1)c1ccc(-c2ccccc2)cc1 + Nc1ccc(C#CCN(C(=O)Cc2ncc(C(F)(F)F)cc2C(F)(F)F)c2ccc(F)cc2)nn1
5. COc1cc(C2c3cc4c(cc3C(OC3OC5COC(C)OC5C(O)C3O)C3COC(=O)C23)OCO4)cc(OC)c1O (centres undefined) + COC1C(OC(N)=O)C(O)C(Oc2ccc3c(O)c(NC(=O)c4ccc(O)c(CC=C(C)C)c4)c(=O)oc3c2C)OC1(C)C

Key:
["104%", "100%", "107%", "100%", "97.7%"]

Could you report viability, T/C for every entry in the following list?
1. CCc1cc2c(N3CCc4c(cc(Cn5ccnc5)cc4-c4cn(C)nc4C(F)(F)F)C3=O)cc(C)nc2c(OC)n1 + COC1C(OC(N)=O)C(O)C(Oc2ccc3c(O)c(NC(=O)c4ccc(O)c(CC=C(C)C)c4)c(=O)oc3c2C)OC1(C)C
2. CC[C@@]1(O)C(=O)OCc2c1cc1n(c2=O)Cc2cc3c(CN(C)C)c(O)ccc3nc2-1 + Nc1ccc(C#CCN(C(=O)Cc2ncc(C(F)(F)F)cc2C(F)(F)F)c2ccc(F)cc2)nn1
3. CCCS(=O)(=O)Nc1ccc(F)c(C(=O)c2c[nH]c3ncc(-c4ccc(Cl)cc4)cc23)c1F + COC1C(OC(N)=O)C(O)C(Oc2ccc3c(O)c(NC(=O)c4ccc(O)c(CC=C(C)C)c4)c(=O)oc3c2C)OC1(C)C
4. COc1cccc2c1C(=O)c1c(O)c3c(c(O)c1C2=O)CC(O)(C(=O)CO)CC3OC1CC(N)C(O)C(C)O1 (centres undefined) + Cc1cccc(N(C)C(=O)C2C(O)CCN2c2nc(C)cc(C(F)(F)F)c2C#N)c1

Key:
103%
81.1%
102%
92.7%
